Provide the recorded log10 of ED50 for the entries that follow.
target: HLA-B*0801 (human); experiment: iTopia affinity
Record value = log10 of ED50 given in µM.

Recorded log10 of ED50 for LERQKRVTM [cdr2 211-219 LERQKRVTM] , please? 2.15

Recorded log10 of ED50 for TLLDRNTEL [cdr2 37-45 TLLDRNTEL] , please? 2.56

Recorded log10 of ED50 for CIKKTKQEI [cdr2 432-440 CIKKTKQEI] , please? 2.38

Recorded log10 of ED50 for LSLERQKRV [cdr2 209-217 LSLERQKRV] , please? 2.45

Recorded log10 of ED50 for EQRTKYRSL [cdr2 442-450 EQRTKYRSL] , please? 1.18

Recorded log10 of ED50 for TGAYRARAL [cdr2 240-248 TGAYRARAL] , please? 1.26

Recorded log10 of ED50 for AVKQRGISL [cdr2 337-345 AVKQRGISL] , please? 1.34

Recorded log10 of ED50 for ALKVKYEEL [cdr2 355-363 ALKVKYEEL] , please? 1.92

Recorded log10 of ED50 for ELYDLRQHF [cdr2 163-171 ELYDLRQHF] , please? 2.53

Recorded log10 of ED50 for EHLKKTVTM [cdr2 196-204 EHLKKTVTM] , please? 2.11

Recorded log10 of ED50 for HLKKTVTML [cdr2 197-205 HLKKTVTML] , please? 1.57

Recorded log10 of ED50 for AYRARALEL [cdr2 242-250 AYRARALEL] , please? 1.41
